- target_entity: human activated kallikrein enzyme (Homo sapiens)
- test: Plasma kallikrein inhibition, fluorogenic PFR-AMC substrate, 500 pM activated kallikrein format
- Format: biochemical
- run_parameters: 500 pM activated kallikrein, 300 uM PFR-AMC, 30 min preincubation, 10 min reaction; read-out: Primary Dose Response Assay: Average EC50
recorded_metric: EC50

# return EC50 for each item in the list
1. CN1CCN(c2cc(C3CC3)cn3cc(CNc4ccnc(NC(=O)[C@@H]5C[C@H]5c5cc(Cl)ccc5C#N)c4)nc23)CC1 (racemic) [Example 143]
2. CNCc1cc(C2CC2)cn2cc(CNc3ccnc(NC(=O)[C@H]4C[C@@H]4c4cccc(Cl)c4)c3)nc12 [Example 595]
3. Cc1ccnc([C@H]2C[C@@H]2C(=O)Nc2nc(C3CC3)nc(N(C)Cc3cn4cc(C5CC5)cc(N5CC(=O)NC5=O)c4n3)n2)n1 (racemic) [Example 522]
4. Cc1ccnc([C@H]2C[C@@H]2C(=O)Nc2cc(OCc3cn4cc(C5CC5)ccc4n3)cnn2)n1 [Example 568]
5. Cc1ccnc([C@H]2C[C@@H]2C(=O)Nc2cc(N(C)Cc3cn4cc(C5CC5)cc(S(C)(=O)=O)c4n3)nc(C)n2)n1 [Example I-161]
6. Cc1ccnc([C@H]2C[C@@H]2C(=O)Nc2cc(NCc3cn4cc(C5CC5)cc(N5CC(=O)N(C)C5=O)c4n3)cnn2)n1 (racemic) [Example 617]

< 1 nM
< 1 nM
< 1 nM
< 1 nM
< 1 nM
< 1 nM

# return EC50 for each item in the list
1. O=C(Nc1cc(NCc2cn3cc(C4CC4)cc(CO)c3n2)ncn1)[C@H]1C[C@@H]1c1cccc(Cl)c1 (racemic) [Example 70]
2. Cc1cc(OCc2cn3cc(C4CC4)cc(N4CC(=O)N(C)C4=O)c3n2)cc(NC(=O)[C@H]2C[C@@H]2c2nccc(C)n2)n1 [Example 34]
3. CO[C@H]1C[C@H](c2cn3cc(C4CC4)ccc3n2)N(c2cc(NC(=O)[C@H]3C[C@@H]3c3cccc(Cl)c3)ncn2)C1 [Example 616]
4. Cc1ccnc([C@H]2C[C@@H]2C(=O)Nc2cc(OCc3cn4cc(C5CC5)cc(N5CC(=O)N(C)C5=O)c4n3)c(C)nn2)n1 [Example 560]

["1 to 10 nM", "< 1 nM", "> 6000 nM", "< 1 nM"]

# return EC50 for each item in the list
1. Cc1ccnc([C@H]2C[C@@H]2C(=O)Nc2nncc(NCc3cn4cc(C5CC5)cc(N5CC(=O)N(C)C5=O)c4n3)n2)n1 [Example I-651]
2. O=C(Nc1cc(NCc2cn3cc(C4CC4)cc(N4CC(=O)N(CCO)C4=O)c3n2)ncn1)[C@H]1C[C@@H]1c1cccc(Cl)c1 [Example 463]
3. CNc1nnc(NC(=O)[C@H]2C[C@@H]2c2nccc(C)n2)cc1OCc1cn2cc(C3CC3)cc(N3CC(=O)N(C)C3=O)c2n1 [Example 670]

1: < 1 nM; 2: < 1 nM; 3: < 1 nM

====

- target_entity: plasma kallikrein (Homo sapiens, UniProt P03952)
- Construct: from tissue
- Sequence (P03952 391-638 limits assumed): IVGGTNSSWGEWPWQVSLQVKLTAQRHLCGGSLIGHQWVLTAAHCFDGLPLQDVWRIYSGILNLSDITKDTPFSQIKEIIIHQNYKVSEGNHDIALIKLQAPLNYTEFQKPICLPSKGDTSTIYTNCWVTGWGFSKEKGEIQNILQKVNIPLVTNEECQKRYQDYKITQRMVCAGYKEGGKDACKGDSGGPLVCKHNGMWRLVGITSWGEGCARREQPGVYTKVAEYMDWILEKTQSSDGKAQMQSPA
- Sequence (P03952 20-390 partner limits assumed): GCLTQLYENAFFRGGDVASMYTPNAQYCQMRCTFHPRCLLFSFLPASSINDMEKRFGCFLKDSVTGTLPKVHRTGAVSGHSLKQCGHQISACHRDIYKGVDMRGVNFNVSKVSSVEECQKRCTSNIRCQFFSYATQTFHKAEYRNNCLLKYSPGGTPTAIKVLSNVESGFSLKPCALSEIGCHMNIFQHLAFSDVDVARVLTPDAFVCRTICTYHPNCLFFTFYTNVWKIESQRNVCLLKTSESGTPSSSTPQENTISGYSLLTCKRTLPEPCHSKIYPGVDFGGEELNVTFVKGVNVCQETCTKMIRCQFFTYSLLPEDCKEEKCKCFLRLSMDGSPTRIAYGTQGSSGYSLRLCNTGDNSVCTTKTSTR
- test: Neat human plasma assay, FXIIa contact pathway-activated, PFR-AMC substrate
- Type: biochemical
- run_parameters: citrated human plasma 78% final, 10 nM human FXIIa, 100 μM PFR-AMC; read-out: Human Plasma Assay: IC90
recorded_metric: IC90

>  <molecule>
CN1CC2(C1)CN(c1cc(C3CC3)cn3cc(CNc4ccnc(NC(=O)[C@H]5C[C@@H]5c5cccc(Cl)c5)c4)nc13)C2

>  <observed_value>
400 to 1500 nM

$$$$
>  <molecule>
O=C(Nc1cc(N2C[C@@H](O)C[C@@H]2c2cn3cc(C4CC4)ccc3n2)ncn1)[C@H]1C[C@@H]1c1cc(Cl)ccn1 (single isomer, unassigned; isomer 2)

>  <observed_value>
< 400 nM

$$$$

Reported IC90, molecule O=C(Nc1cc(NCc2cn3cc(C4CC4)cc(N4CCCC4=O)c3n2)ccn1)[C@H]1C[C@@H]1c1cccc(Cl)c1 : ____
400 to 1500 nM
